Every entry's value here was drawn from patent US20060264369.

- Assay Target: von Willebrand factor full length (Homo sapiens, UniProt P04275 SEQ:764-2813)
- Procedure Text: filter; 32% bound at 100 nM
- Condition Info: tags: Calbiochem 681300
Measurement Kind: Kd (nM)
The answer is to be given in nM; state only the numeric part.

State its Kd for this binder: GGCGUGCAGTGCCTTCGGCCGTGCGGTGCCTCCGTCACGCC (ssDNA, 2'-OMe at 3,5,36,38,40,41; 3'-idT) [ARC1236]
3
